- targetSystem: BTK enzyme (recombinant full-length BTK, hBTK) (Homo sapiens (Human), UniProt Q06187)
- Sequence (Q06187 whole entry): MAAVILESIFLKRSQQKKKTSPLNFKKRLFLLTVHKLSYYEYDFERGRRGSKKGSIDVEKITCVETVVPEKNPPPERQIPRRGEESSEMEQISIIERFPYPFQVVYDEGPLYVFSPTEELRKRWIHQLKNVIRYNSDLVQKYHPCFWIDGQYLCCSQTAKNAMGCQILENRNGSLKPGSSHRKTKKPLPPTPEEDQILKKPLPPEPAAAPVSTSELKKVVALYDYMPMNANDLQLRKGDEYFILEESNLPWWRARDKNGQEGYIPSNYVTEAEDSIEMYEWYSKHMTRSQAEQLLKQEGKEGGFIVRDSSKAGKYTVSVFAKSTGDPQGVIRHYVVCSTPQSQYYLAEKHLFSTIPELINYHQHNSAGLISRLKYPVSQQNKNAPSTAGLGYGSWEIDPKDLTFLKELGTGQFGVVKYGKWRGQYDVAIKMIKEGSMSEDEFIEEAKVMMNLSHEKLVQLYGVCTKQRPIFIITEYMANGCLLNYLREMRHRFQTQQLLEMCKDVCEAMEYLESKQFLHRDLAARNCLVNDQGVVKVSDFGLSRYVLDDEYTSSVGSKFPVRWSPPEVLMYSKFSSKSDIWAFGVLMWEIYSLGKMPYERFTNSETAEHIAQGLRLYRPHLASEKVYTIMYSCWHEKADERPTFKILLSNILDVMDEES
- testSummary: Btk enzyme activity assay, LANCE TR-FRET
- runConditions: 50 pM hBTK, 2 μM biotin-A5-peptide, 25 μM ATP; 60 minute compound & enzyme incubation; read-out: BTK binding IC50
Exercise: state measured pIC50 for each of the compounds provided.
# pIC50: negative log10 of molar concentration; output just the value

-- ask What value of pIC50 has been recorded for this entry: C[C@H]1CO[C@@H](c2nc(-c3ccc(C(=O)Nc4cc(C(F)F)ccn4)cc3F)c3c(N)ncc(Cl)n23)CN1[C@H]1CC[C@](C)(C(=O)O)CC1 [Example 207]
-- reply 6.13

-- ask What value of pIC50 has been recorded for this entry: C[C@]1(C(=O)O)CCC[C@@H](c2nc(-c3ccc(C(=O)Nc4cc(C5CC5)ccn4)cc3F)c3c(N)nccn23)C1 [Example 156]
-- reply 8.77

-- ask What value of pIC50 has been recorded for this entry: CCOc1cc(C(=O)Nc2cc(C(F)(F)F)ccn2)ccc1-c1nc([C@]2(C)CC[C@](C)(C(=O)O)C2)n2ccnc(N)c12 [Example 87]
-- reply 7.86

Reference source for all entries: patent US10087188B2
